All values here come from PubChem BioAssay (NCATS).

test: Confirmatory screen NINDS Rhodamine qHTS for Zika virus inhibitors (AID 1347161); details: purified enzyme assay, Rhodamine110 substrate fluorescence, 15 min; series mostly up to 114 µM; also: nearly all actives have a fitted effect of over 60% in size
Inconclusive results are not listed. Calls of active or inactive are those of the source. Calls follow the shape of the dose curve; as a rule, active = well fitted inhibition curve with a large enough effect; inconclusive = small, poorly fitted or top-dose-only effect; inactive = no such curve, though single readings can be large or run the other way.
Lab note: assign the record to one of Y (active), N (inactive)

The examples below pair each entry with its known result.
Molecule: O=C(CSc1nnc(-c2cccc([S+](=O)([O-])NC3CCCC3)c2)n1-c1ccc(F)cc1)Nc1ccc(C(=O)O)cc1
Classification: N
//
Molecule: Cc1ccc(S(=O)(=O)Nc2cc(SCC(=O)O)c(O)c3ccccc23)cc1[N+](=O)[O-]
Classification: Y
//
Molecule: O=C(Nc1ccc(C(=O)OCc2cc(=O)n3nc(C4CC4)sc3n2)cc1)c1cccc(F)c1
Classification: N

stdin: What is the recorded call for this molecule in the test? O=C(O)c1c(Sc2ccccc2)c2cc(Cl)ccc2n1Cc1ccc(Cl)cc1
stdout: Y

stdin: What is the recorded call for this molecule in the test? O=c1c(O)c(Br)ccc2c(Br)c(O)c(O)c(O)c12
stdout: Y

stdin: What is the recorded call for this molecule in the test? COc1ccc(S(=O)(=O)c2c(Nc3cccc(Cl)c3)sc(C(=O)c3ccccc3)c2N)cc1
stdout: N

stdin: What is the recorded call for this molecule in the test? CCOc1nc2cccc(C(=O)OC(C)OC(=O)OC3CCCCC3)c2n1Cc1ccc(-c2ccccc2-c2nn[nH]n2)cc1 (configuration not stated)
stdout: Y

stdin: What is the recorded call for this molecule in the test? Cc1c2ccccc2c(CSC(=N)N)c2ccccc12
stdout: N

---

experiment: qHTS for Inhibitors of Plasmodium falciparum (GB4) proliferation (AID 504315); also: nearly all actives have a fitted effect of over 50% in size; conditions: P. falciparum GB4 in erythrocytes, SYBR Green DNA, 72 h; series mostly up to 6.7 µM
Records with an inconclusive call do not appear. Active and inactive are the calls of the source. The call rests on the fitted dose curve; in most records, active means well fitted inhibition curve with a large enough effect; inconclusive means small, poorly fitted or top-dose-only effect, or effect the other way; inactive means flat fitted curve, though single readings scatter.
Lab note: assign the record to one of yes (1) = active, no (0) = inactive

Molecule: CCOC(=O)CN1C(=O)N[C@@H](c2cccc(C(F)(F)F)c2)[C@H](C(C)=O)[C@H]1C
Classification: no (0)
//
Molecule: CC1=C[C@@H](C)OC2(C1)C(=O)N(CC1CC1)c1cccc(Br)c12 (some centres undefined)
Classification: no (0)

stdin: What is the recorded call for this molecule in the test? COc1ccc(C=CC2=C[C@]3(C)C[C@]2(C)[C@H](c2ccc(OC)cc2)CC3=O)cc1
stdout: yes (1)

stdin: What is the recorded call for this molecule in the test? O=c1oc2ccccc2c2c1[C@H]1O[C@](c3ccsc3)(Cc3c1ccc1ccccc31)O2
stdout: no (0)

stdin: What is the recorded call for this molecule in the test? COC(=O)C1=C[C@]2(c3ccccc3C[C@H](OC)[C@@H]2C)[C@H]2C=C[C@H]1C2
stdout: no (0)

stdin: What is the recorded call for this molecule in the test? C=CCN(C)C1=NC(c2ccccc2)C(C(=O)OC)=C(C)N1CCOC (centres undefined)
stdout: no (0)

stdin: What is the recorded call for this molecule in the test? COC(=O)C12CC3(CCC4C5C(C(OCc6ccccc6)C41)C52)OCCO3 (centres undefined)
stdout: no (0)

stdin: What is the recorded call for this molecule in the test? CC(C)OC(=O)[C@H](C)NC(=O)N1CCc2nc(-c3ccccc3)c3c(c2C1)CO[C@@H](C)C3
stdout: no (0)

stdin: What is the recorded call for this molecule in the test? COC(=O)C1=C(C(=O)OC)[C@@H]2N(C)c3ccccc3[C@@]23C[C@@H](C(=O)OC)N(C(=O)c2cc(C)oc2C)C3=N1
stdout: no (0)
